# Lookup of reported Fluorescence intensity, fluorescence competitive binding assay, OBP11 keyed by entry
molecular target: SfurOBP11 (Sogatella furcifera); experiment: biochemical; assay type: binding; conditions: ligand concentration 14, replicate 1
Sequence (V5T6E3 entry or part of it): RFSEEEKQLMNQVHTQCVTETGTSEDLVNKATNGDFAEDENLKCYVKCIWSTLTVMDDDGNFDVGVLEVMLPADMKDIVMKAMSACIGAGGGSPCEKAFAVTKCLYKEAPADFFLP
testReadout: Fluorescence intensity, fluorescence competitive binding assay, OBP11

compound=COC(=O)c1ccccc1 result=19900
compound="C=CC(C)(O)CCC=C(C)CCC=C(C)C (mixture of isomers)" result=20351
compound=CCCCCCCCCCCCO result=19736

// data source = paper PMC6409085
